- target system: Very long chain fatty acid elongase 7 (Homo sapiens, UniProt A1L3X0)
- Sequence (A1L3X0 whole entry): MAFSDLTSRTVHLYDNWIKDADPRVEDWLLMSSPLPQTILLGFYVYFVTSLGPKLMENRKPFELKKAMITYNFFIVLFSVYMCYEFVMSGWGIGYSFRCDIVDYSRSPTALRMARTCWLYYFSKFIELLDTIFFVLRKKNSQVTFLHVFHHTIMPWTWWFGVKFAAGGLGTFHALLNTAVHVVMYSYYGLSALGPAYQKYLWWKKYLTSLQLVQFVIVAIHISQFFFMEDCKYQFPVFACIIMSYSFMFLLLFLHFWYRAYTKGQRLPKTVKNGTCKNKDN
- procedure summary: Inhibition of ELOVL7 (unknown origin) using C18-acyl-CoA as substrate by radiometric enzyme assay
observed property: IC50

Enquiry: Quick one: give measured IC50 for O=C(Nc1ccn(-c2ccnc(F)c2)n1)C1(c2ccccc2F)CC1
Return: > 500 µM

###

Listed here: items and their measured log10(hepatocyte CLint).
- procedure summary: Intrinsic clearance in rat hepatocytes assessed per million cells
- Format: ADME, cell-based, Hepatocyte
- assay context: read-out: CLH
Log10 applied to hepatocyte CLint; unit prior to transform: µL/min/1e6 cells.

[
  {
    "compound": "CC[C@@H](C(=O)Nc1ccn(-c2ccccc2)n1)c1ccccc1",
    "observed measurement": 2.09
  },
  {
    "compound": "N#Cc1ccc(C2(C(=O)Nc3ccn(-c4cncc(F)c4)n3)CC2)cc1",
    "observed measurement": 0.90
  },
  {
    "compound": "O=C(Nc1ccn(-c2cncc(F)c2)n1)C1(c2ccccc2Cl)CC1",
    "observed measurement": 1.79
  },
  {
    "compound": "N#Cc1cccc(C2(C(=O)Nc3ccn(-c4cncc(F)c4)n3)CC2)c1",
    "observed measurement": 1.78
  },
  {
    "compound": "O=C(Nc1ccn(-c2cncc(F)c2)n1)C1(c2cccc(F)c2)CC1",
    "observed measurement": 1.99
  }
]

// next entry
Enquiry: Quick one: give measured log10(hepatocyte CLint) for O=C(Cc1ccccc1F)Nc1ccn(-c2ccccc2)n1
Return: 2.26
